System: T47D
Assay: NCI tumour cell line growth inhibition, 48 h
Calls of active or inactive are those of the source. Cut-off read from the data, not from the text of the source: active = GI50 up to about 1.1 µM and inactive = higher.
Lab note: assign the record to one of active, inactive

>>> assigned_label("C=C(Cl)C(Cl)(CBr)CCC(Cl)C(C)C (stereo not drawn)")
"active"
>>> assigned_label("O=C(N/N=C(COc1ccccc1Cl)\\N=C\\c1cccnc1)c1ccncc1")
"inactive"
>>> assigned_label("CC(=O)OCC1OC(O[C@H]2C=C[C@@H](C(=O)OCc3ccccc3)n3c(=O)n(-c4ccccc4)c(=O)n32)C(OC(C)=O)C(OC(C)=O)C1OC(C)=O (stereo partly drawn)")
"inactive"
>>> assigned_label("CCOc1ccc(NC2=CC(=O)C(=O)c3ccccc32)cc1")
"inactive"
>>> assigned_label("CC(=O)c1cccc(NC(=O)/C(=N\\NC(=S)NN)C2C(=O)Nc3ccccc3[S+]2[O-])c1 (stereo not drawn)")
"inactive"
>>> assigned_label("Oc1ccc(O)c(CNc2ccccc2)c1")
"inactive"
>>> assigned_label("O=C(O)c1ccc(C(=O)Nc2cccc3ccccc23)c(C(=O)O)c1")
"inactive"

Please look at the following compound next.
Ask: For Cc1cc(S(=O)(=O)N/C(=C(\C#N)C(=O)c2ccccc2)[n+]2ccc(N(C)C)cc2)c([S-])cc1Cl , which call appears in the assay record?
Result: inactive

----------
Tested on: OVCAR-8
Experiment: NCI tumour cell line growth inhibition, 48 h
Active and inactive are the calls of the source. Rule as the data show it: active = GI50 up to about 1.1 µM and inactive = higher.
GI50: recorded values

// below: answered compounds
>>> observed_result("Oc1ccc(CCc2cc(O)cc(O)c2)cc1 [DIHYDRORESVERATROL]")
"> 100 µM (inactive)"
>>> observed_result("O=C1C=Cc2cscc21")
"32.6 µM (inactive)"
>>> observed_result("Br[Se]c1ccccn1")
"19.6 µM (inactive)"
>>> observed_result("CNC(=O)OCc1nccc2c(C)c3[nH]c4ccc(OC)cc4c3cc12")
"3.1 µM (inactive)"
>>> observed_result("O=c1ccn(C2OC(CO)C(P(=O)(O)O)C2O)c(=O)[nH]1 (centres undefined)")
"> 100 µM (inactive)"
>>> observed_result("COc1nc(N)c(NC(C)=O)c(=O)n1C")
"> 100 µM (inactive)"

Consider the additional compound presented here.
Ask: # GI50 lookup, item CC(C)OP(=O)(OC(C)C)/C(C#N)=C/c1ccco1
Result: > 100 µM (inactive)

----------
Test system: Malme-3M
Experiment: NCI tumour cell line growth inhibition, 48 h
The source made the active and inactive calls. Cut-off read from the data, not from the text of the source: active = GI50 up to about 1.1 µM and inactive = higher.
GI50: recorded values

// below: answered compounds
>>> observed_result("Cc1ccc(Oc2ccc(C)cc2[N+](=O)[O-])cc1")
"> 100 µM (inactive)"
>>> observed_result("O=c1ccc2ccccc2o1")
"> 100 µM (inactive)"
>>> observed_result("CCCCCCCCCCCCCCCCCC(=O)OCC1OC(OC)C(NC(=O)N(CCCl)N=O)C(O)C1O (stereo unspecified)")
"26.1 µM (inactive)"
>>> observed_result("COc1cc(/C=C(\\C#N)C(N)=O)cc(Br)c1O")
"> 100 µM (inactive)"
>>> observed_result("CC1CCCP(=O)(c2ccccc2)CC1 (stereo unspecified)")
"> 100 µM (inactive)"

Ask: # GI50 lookup, item CC(=O)N[C@@H]1C(O)CN2C(=O)C(=O)O[C@H](C(O)CO)[C@@H]12 (stereo partly specified)
Result: > 100 µM (inactive)
